test system: Acinetobacter baumannii isolates; experiment: Antimicrobial susceptibility test, disc diffusion method (CLSI M100-S24); type: cell-based; conditions: isolate AB2; disc diffusion
So I've got a bunch of molecules here, and I need their Inhibition zone values.
Numbers only, in mm.

- structure: "CN(C)[C@@H]1C(O)=C(C(N)=O)C(=O)[C@@]2(O)C(O)=C3C(=O)c4c(O)cccc4[C@@](C)(O)[C@H]3C[C@@H]12"
  Inhibition zone, mm: 22

Shift focus to the following entry.
query: Dear colleague, I am looking for the recorded Inhibition zone of the following molecule: NC[C@@H]1O[C@H](O[C@H]2[C@@H](O)[C@H](O[C@@H]3[C@@H](O)[C@H](N)C[C@H](N)[C@H]3O[C@H]3O[C@H](CN)[C@@H](O)[C@H](O)[C@H]3N)O[C@@H]2CO)[C@H](N)[C@@H](O)[C@@H]1O
result: 20

----------
tested on: Acinetobacter baumannii isolates; assay: Antimicrobial susceptibility test, disc diffusion method (CLSI M100-S24); format: cell-based; conditions: isolate AB6; disc diffusion
experimental readout: Inhibition zone (mm)
Answers are plain numbers, in mm.

- compound: "C[C@H]1[C@H](NC(=O)/C(=N\\OC(C)(C)C(=O)O)c2csc(N)n2)C(=O)N1S(=O)(=O)O"
  Inhibition zone / mm: 20

Look at each compound and report its Inhibition zone.
1. CO/N=C(\C(=O)N[C@@H]1C(=O)N2C(C(=O)[O-])=C(C[N+]3(C)CCCC3)CS[C@H]12)c1csc(N)n1 [FEP, Cefepime]
2. CO/N=C(\C(=O)N[C@@H]1C(=O)N2C(C(=O)O)=C(COC(C)=O)CS[C@H]12)c1csc(N)n1
3. NCC[C@H](O)C(=O)N[C@@H]1C[C@H](N)[C@@H](O[C@H]2O[C@H](CN)[C@@H](O)[C@H](O)[C@H]2O)[C@H](O)[C@H]1O[C@H]1O[C@H](CO)[C@@H](O)[C@H](N)[C@H]1O

result:
21
17
30

----------
tested on: Acinetobacter baumannii isolates; experiment: Antimicrobial susceptibility test, disc diffusion method (CLSI M100-S24); assay type: cell-based; conditions: isolate AB5; disc diffusion

- compound: "NC[C@@H]1O[C@H](O[C@H]2[C@@H](O)[C@H](O[C@@H]3[C@@H](O)[C@H](N)C[C@H](N)[C@H]3O[C@H]3O[C@H](CN)[C@@H](O)[C@H](O)[C@H]3N)O[C@@H]2CO)[C@H](N)[C@@H](O)[C@@H]1O [NEO, Neomycin]"
  Inhibition zone: "10 mm"
- compound: "CCN1CCN(C(=O)N[C@@H](C(=O)N[C@@H]2C(=O)N3[C@@H]2SC(C)(C)[C@@H]3C(=O)O)c2ccccc2)C(=O)C1=O [PIP, Piperacillin]"
  Inhibition zone: "NZ"
- compound: "O=C(N[C@H](CO)[C@H](O)c1ccc([N+](=O)[O-])cc1)C(Cl)Cl [CHL, Chloramphenicol]"
  Inhibition zone: "8 mm"

----------
test system: Acinetobacter baumannii isolates; assay: Antimicrobial susceptibility test, disc diffusion method (CLSI M100-S24); type: cell-based; parameters: key: “NZ” indicated that no zone of inhibition was observed; conditions: isolate AB20; disc diffusion
experimental readout: Inhibition zone

- structure: "O=C(N[C@H](CO)[C@H](O)c1ccc([N+](=O)[O-])cc1)C(Cl)Cl"
  observed result: "NZ"
- structure: "C[C@H]1[C@H](NC(=O)/C(=N\\OC(C)(C)C(=O)O)c2csc(N)n2)C(=O)N1S(=O)(=O)O"
  observed result: "NZ"
- structure: "CO/N=C(\\C(=O)N[C@@H]1C(=O)N2C(C(=O)O)=C(COC(C)=O)CS[C@H]12)c1csc(N)n1"
  observed result: "NZ"

----------
test system: Acinetobacter baumannii isolates; assay: Antimicrobial susceptibility test, disc diffusion method (CLSI M100-S24); type: cell-based; design: key: “NZ” indicated that no zone of inhibition was observed; details: isolate AB14; disc diffusion
experimental readout: Inhibition zone

- compound: "CC(C)(O/N=C(\\C(=O)N[C@@H]1C(=O)N2C(C(=O)[O-])=C(C[n+]3ccccc3)CS[C@H]12)c1csc(N)n1)C(=O)O"
  Inhibition zone: "NZ"
- compound: "O=C(N[C@H](CO)[C@H](O)c1ccc([N+](=O)[O-])cc1)C(Cl)Cl"
  Inhibition zone: "NZ"
- compound: "CO/N=C(\\C(=O)N[C@@H]1C(=O)N2C(C(=O)O)=C(COC(C)=O)CS[C@H]12)c1csc(N)n1"
  Inhibition zone: "NZ"
- compound: "CN(C)[C@@H]1C(O)=C(C(N)=O)C(=O)[C@@]2(O)C(O)=C3C(=O)c4c(O)cccc4[C@@](C)(O)[C@H]3C[C@@H]12"
  Inhibition zone: "24 mm"
- compound: "CO/N=C(\\C(=O)N[C@@H]1C(=O)N2C(C(=O)[O-])=C(C[N+]3(C)CCCC3)CS[C@H]12)c1csc(N)n1 [FEP, Cefepime]"
  Inhibition zone: "NZ"

Hello, I would appreciate it if you could give Inhibition zone for each entry below.
1. CCN1CCN(C(=O)N[C@@H](C(=O)N[C@@H]2C(=O)N3[C@@H]2SC(C)(C)[C@@H]3C(=O)O)c2ccccc2)C(=O)C1=O
2. C[C@H]1COc2c(N3CCN(C)CC3)c(F)cc3c(=O)c(C(=O)O)cn1c23

result:
1: NZ; 2: 11 mm

----------
tested on: Acinetobacter baumannii isolates; test: Antimicrobial susceptibility test, disc diffusion method (CLSI M100-S24); assay type: cell-based; settings: isolate AB18; disc diffusion
Provide the reported Inhibition zone of each item.
One number for each entry, in mm.

- structure: "CN(C)[C@@H]1C(O)=C(C(N)=O)C(=O)[C@@]2(O)C(O)=C3C(=O)c4c(O)cccc4[C@@](C)(O)[C@H]3C[C@@H]12"
  tested on: "Acinetobacter baumannii isolates"
  experimental readout: "Inhibition zone"
  observed result: 20
- structure: "O=C(N[C@H](CO)[C@H](O)c1ccc([N+](=O)[O-])cc1)C(Cl)Cl"
  tested on: "Acinetobacter baumannii isolates"
  experimental readout: "Inhibition zone"
  observed result: 8

Please turn your attention to the following entry.
query: Form field - read-out: Inhibition zone; system: Acinetobacter baumannii isolates; submitted item: NCC[C@H](O)C(=O)N[C@@H]1C[C@H](N)[C@@H](O[C@H]2O[C@H](CN)[C@@H](O)[C@H](O)[C@H]2O)[C@H](O)[C@H]1O[C@H]1O[C@H](CO)[C@@H](O)[C@H](N)[C@H]1O
result: 14

----------
Test system: Acinetobacter baumannii isolates
Assay: Antimicrobial susceptibility test, disc diffusion method (CLSI M100-S24)
Format: cell-based
Parameters: key: “NZ” indicated that no zone of inhibition was observed
Conditions: isolate AB20; disc diffusion
Method: A total of 33 non-duplicate, non-consecutive clinical isolates of Multi-Drug Resistant (MDR) Acinetobacter baumannii were collected from burn wards (“AB1-AB33”). […] The inoculum suspension was prepared by selecting three to five morphologically similar colonies from overnight growth (16-24 h of incubation) on blood agar medium. […] The suspension density was measured using a UV spectrophotometer calibrated with a 0.5 McFarland standard. […]
experimental readout: Inhibition zone

Would you please look over these solved cases?
- molecule: "CCN1CCN(C(=O)N[C@@H](C(=O)N[C@@H]2C(=O)N3[C@@H]2SC(C)(C)[C@@H]3C(=O)O)c2ccccc2)C(=O)C1=O [PIP, Piperacillin]"
  Inhibition zone: "NZ"
- molecule: "CN(C)[C@@H]1C(O)=C(C(N)=O)C(=O)[C@@]2(O)C(O)=C3C(=O)c4c(O)cccc4[C@@](C)(O)[C@H]3C[C@@H]12 [TET, Tetracycline]"
  Inhibition zone: "28 mm"
- molecule: "NC[C@@H]1O[C@H](O[C@H]2[C@@H](O)[C@H](O[C@@H]3[C@@H](O)[C@H](N)C[C@H](N)[C@H]3O[C@H]3O[C@H](CN)[C@@H](O)[C@H](O)[C@H]3N)O[C@@H]2CO)[C@H](N)[C@@H](O)[C@@H]1O [NEO, Neomycin]"
  Inhibition zone: "NZ"
- molecule: "NCC[C@H](O)C(=O)N[C@@H]1C[C@H](N)[C@@H](O[C@H]2O[C@H](CN)[C@@H](O)[C@H](O)[C@H]2O)[C@H](O)[C@H]1O[C@H]1O[C@H](CO)[C@@H](O)[C@H](N)[C@H]1O [AK, Amikacin]"
  Inhibition zone: "NZ"
- molecule: "CC1(C)S[C@@H]2[C@H](NC(=O)[C@H](N)c3ccc(O)cc3)C(=O)N2[C@H]1C(=O)O [AMX, Amoxicillin]"
  Inhibition zone: "NZ"

Read the next record carefully.
query: // fetch Acinetobacter baumannii isolates Inhibition zone for CO[C@@]1(NC(=O)Cc2cccs2)C(=O)N2C(C(=O)O)=C(COC(N)=O)CS[C@@H]21 [FOX, Cefoxitin]
result: NZ

----------
test system: Acinetobacter baumannii isolates; test: Antimicrobial susceptibility test, disc diffusion method (CLSI M100-S24); format: cell-based; settings: isolate AB32; disc diffusion
experimental readout: Inhibition zone (mm)
Answers are plain numbers, in mm.

- structure: "O=C(N[C@H](CO)[C@H](O)c1ccc([N+](=O)[O-])cc1)C(Cl)Cl"
  experimental readout: "Inhibition zone"
  observed result: 9
- structure: "CN(C)[C@@H]1C(O)=C(C(N)=O)C(=O)[C@@]2(O)C(O)=C3C(=O)c4c(O)cccc4[C@@](C)(O)[C@H]3C[C@@H]12"
  experimental readout: "Inhibition zone"
  observed result: 28
- structure: "CO/N=C(\\C(=O)N[C@@H]1C(=O)N2C(C(=O)O)=C(COC(C)=O)CS[C@H]12)c1csc(N)n1"
  experimental readout: "Inhibition zone"
  observed result: 8

Would you be so kind as to report Inhibition zone for each listed record?
1. C[C@H]1COc2c(N3CCN(C)CC3)c(F)cc3c(=O)c(C(=O)O)cn1c23
2. CCN1CCN(C(=O)N[C@@H](C(=O)N[C@@H]2C(=O)N3[C@@H]2SC(C)(C)[C@@H]3C(=O)O)c2ccccc2)C(=O)C1=O

result:
18
8
